Test system: MS2 coat protein
assayRemarks: apparent KD of MS2 coat protein; higher = weaker reporter binding
runConditions: Eterna round: R107; input ligand: theophylline 2 mM
Examples of sequences with documented apparent KD of MS2 coat protein follow.
All answers are understood in nM, so give the number only.

{"columns": ["residues", "reported"],
 "data": [
  ["AUCAUAAUAGACUCGUUAGAUUAUAUGGAACGAGGACCGGUACGGCCGCCACUCGUGAUGUACAUGAGGAUCACCCAUGUUAGCU [JR_Nu_SSTryptoA_Sub025]", 17]
]}

Consider AAUAAUAAGGCGGCCGCCACUACACAUGAGGAUCACCCAUGUCUCGCGGGCUUGCGUUGGGAAAGUAGGACCGGGCCAAUAAUAA [Exclusion - Tryptophan B (Freestyle 9)] . Its measured apparent KD of MS2 coat protein is 27.3

Consider UUUUUUAACUGAAGGAGCGUCACAUGAGGAUCACCCAUGUAUUAGAUGAGAAUGAUCUUGUGGCAGGUAGGUCGCAGAGGAAGGG [#30 Exclusion - Arginine B] . Its measured apparent KD of MS2 coat protein is 271
